// data source = ChEMBL document CHEMBL4613231

assay: Cytotoxicity against human WI38 cells assessed as reduction in cell viability after 72 hrs by MTT assay; assay type: cell-based, WI-38; details: WI-38 cells
Observable: CC50 at 72 h (µM)
The figure you give is taken to be in µM; do not add the unit.

input: Return the recorded CC50 at 72 h value; entry: COc1cccc2cc(-c3cc(=O)oc4c(C)c(OCc5ccc(Cl)cc5)ccc34)c(=O)oc12
output: 60

====

biological target: Tyrosyl-DNA phosphodiesterase 1 (Homo sapiens); test: Inhibition of TDP1 (unknown origin) using 5'-(5,6 FAM-AAC GTC AGG GTC TTC C- BHQ1)-3' as substrate measured for every 1 min by fluorescence based assay
Observable: log10(IC50) (log10 of the value in nM)
// units: nM (pre-log); metric: IC50; scale: log10

Worked cases, answers included:
{"Molecule": "COc1cccc2cc(-c3cc(=O)oc4cc(OCC(C)=O)ccc34)c(=O)oc12", "Observable": "log10(IC50)", "Recorded result": 3.88}
{"Molecule": "O=C(NCCC1=CCCCC1)c1cc2c([nH]c3ccccc32)c(-c2ccc3c(c2)OCO3)n1", "Observable": "log10(IC50)", "Recorded result": 3.11}
{"Molecule": "COc1cccc2cc(-c3cc(=O)oc4c(C)c(OCc5ccc(Cl)cc5)ccc34)c(=O)oc12", "Observable": "log10(IC50)", "Recorded result": 2.56}
{"Molecule": "Cc1c(CC(=O)NC(Cc2ccc(Cl)cc2)C(=O)O)c(=O)oc2c(C)c3occ(-c4ccc(F)cc4)c3cc12 (stereo not drawn)", "Observable": "log10(IC50)", "Recorded result": 2.93}
{"Molecule": "Cc1c(CCC(=O)N[C@@H](CSCc2ccccc2)C(=O)O)c(=O)oc2cc3oc4c(c3cc12)CCCC4", "Observable": "log10(IC50)", "Recorded result": 4.19}

input: Give Tyrosyl-DNA phosphodiesterase 1 (Homo sapiens) log10(IC50) for the following molecule: Cc1c(CC(=O)N[C@@H](CSCc2ccccc2)C(=O)O)c(=O)oc2c(C)c3occ(-c4ccc(F)cc4)c3cc12
output: 3.03

====

Collected CC50 at 72 h values appear next to each entry.
experiment: Cytotoxicity against human MCF7 cells assessed as reduction in cell viability after 72 hrs by MTT assay; format: cell-based; details: MCF7 cells
The figure you give is taken to be in µM; do not add the unit.

{"Sample smiles": "COc1cccc2cc(-c3cc(=O)oc4c(C)c(OCc5ccc(Cl)cc5)ccc34)c(=O)oc12", "Reading unit": "µM", "CC50 at 72 h": 17}

Shift focus to the following entry.
input: Return the recorded CC50 at 72 h value; entry: Cc1c(CC(=O)N[C@@H](CSCc2ccccc2)C(=O)O)c(=O)oc2c(C)c3occ(-c4ccc(F)cc4)c3cc12
output: 80

====

molecular target: Tyrosyl-DNA phosphodiesterase 1 (Homo sapiens, UniProt Q9NUW8); assay: Inhibition of TDP1 (unknown origin) using 5'-(5,6 FAM-AAC GTC AGG GTC TTC C- BHQ1)-3' as substrate measured for every 1 min by fluorescence based assay
Sequence (Q9NUW8 whole entry): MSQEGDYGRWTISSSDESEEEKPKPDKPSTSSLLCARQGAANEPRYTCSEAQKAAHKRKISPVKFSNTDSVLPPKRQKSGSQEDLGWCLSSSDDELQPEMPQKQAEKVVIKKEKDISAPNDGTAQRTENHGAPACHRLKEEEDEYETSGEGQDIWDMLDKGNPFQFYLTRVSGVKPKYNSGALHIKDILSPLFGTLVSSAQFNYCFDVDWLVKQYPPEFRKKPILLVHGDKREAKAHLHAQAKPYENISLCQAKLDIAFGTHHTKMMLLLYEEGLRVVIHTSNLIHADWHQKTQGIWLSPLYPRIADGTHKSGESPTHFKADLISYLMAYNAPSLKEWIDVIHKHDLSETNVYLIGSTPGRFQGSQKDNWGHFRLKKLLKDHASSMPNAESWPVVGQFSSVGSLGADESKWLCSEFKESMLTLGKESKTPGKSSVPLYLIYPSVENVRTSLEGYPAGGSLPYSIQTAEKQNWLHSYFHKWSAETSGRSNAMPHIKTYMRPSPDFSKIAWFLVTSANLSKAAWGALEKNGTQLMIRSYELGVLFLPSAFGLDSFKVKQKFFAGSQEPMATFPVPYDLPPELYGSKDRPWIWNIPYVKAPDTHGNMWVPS
Observable: log10(IC50) (log10 of the value in nM)
// units: nM (pre-log); metric: IC50; scale: log10

Worked cases, answers included:
{"Compound": "CC(C)OCCCNC(=O)c1cc2c([nH]c3ccccc32)c(-c2ccc3c(c2)OCO3)n1", "log10(IC50)": 3.49}
{"Compound": "O=c1cc(-c2cc3ccccc3oc2=O)c2ccc(OCc3c(Cl)cccc3Cl)cc2o1", "log10(IC50)": 2.00}

input: Return the recorded log10(IC50) value; entry: CCCc1cc(=O)oc2c(C)c(OCC(=O)NC(Cc3c[nH]c4ccc(O)cc34)C(=O)O)ccc12 (stereo not given)
output: 3.75

input: Return the recorded log10(IC50) value; entry: O=c1cc(-c2cc3ccccc3oc2=O)c2ccc(OCc3ccccc3Cl)cc2o1
output: 2.45

input: Return the recorded log10(IC50) value; entry: O=c1cc(-c2cc3ccccc3oc2=O)c2ccc(OCc3cccc4ccccc34)cc2o1
output: 2.43
